Values were extracted from patent US7276510B2.

Exercise: for every item that follows, state its recorded CC50.
Experiment: Cytotoxicity in mock-infected MT-4 cells (MTT)
Assay type: cell-based
Details: human, OD 540 nm
Method: A rapid, sensitive and automated assay procedure was used for the in vitro evaluation of anti-HIV agents. […] The viability of both HIV- and mock-infected cells was assessed spectrophotometrically via the in situ reduction of 3-(4,5-dimethylthiazol-2-yl)-2,5-diphenyltetrazolium bromide (MTT). […] The percent protection achieved by the compound in HIV-infected cells was calculated by the following formula: […]

(Q) Look at this compound and give its reported CC50. `Cc1cc(C#N)cc(C)c1Oc1nc(Nc2ccc(C#N)cc2)nc(CO)c1Br`
(A) > 100 µM

(Q) Same lookup for `COCc1cc(Nc2cc(C)c(F)cc2Cl)nc(Nc2ccc(C#N)cc2)n1` , please.
(A) > 100 µM

(Q) Next: `COc1nc(Cc2c(Cl)cccc2Cl)nc(Nc2ccc(C#N)cc2)n1`
(A) > 100 µM

(Q) Quick one: `N#Cc1ccc(Nc2nc(CO)c(Br)c(Oc3c(Br)cc(C#N)cc3Br)n2)cc1`
(A) > 100 µM

(Q) Now the compound `CSc1nc(Cc2c(Cl)cccc2Cl)nc(Nc2ccc(C#N)cc2)n1`
(A) 39.8 µM

(Q) Here is the next compound: `Cc1cc(C#N)cc(C)c1Nc1cc(C(F)(F)F)nc(Nc2ccc(C#N)cc2)n1`
(A) 5.01 µM

(Q) Another compound to check: `N#Cc1ccc(Nc2nc(Cc3c(Cl)cccc3Cl)nc(C(N)=O)n2)cc1`
(A) > 100 µM

(Q) Please answer likewise for `COC(=O)c1cc(Oc2c(C)cc(C#N)cc2C)nc(Nc2ccc(C#N)cc2)n1`
(A) > 100 µM

(Q) Next: `Cc1cc(C)c(Nc2nc(Nc3ccc(C#N)cc3)nc(C(N)=O)c2Br)c(C)c1`
(A) 50.1 µM
